STUDY_SYSTEM: α4β1 integrin (Jurkat cell adhesion to immobilized CS-1 derived peptide CLHPGEILDVPST) (Homo sapiens, UniProt P05556+P13612)
Construct: 100 μl of Jurkat cells (2.5×10^6 cells/ml) in DMEM plus BSA
Sequence (P13612 34-1032): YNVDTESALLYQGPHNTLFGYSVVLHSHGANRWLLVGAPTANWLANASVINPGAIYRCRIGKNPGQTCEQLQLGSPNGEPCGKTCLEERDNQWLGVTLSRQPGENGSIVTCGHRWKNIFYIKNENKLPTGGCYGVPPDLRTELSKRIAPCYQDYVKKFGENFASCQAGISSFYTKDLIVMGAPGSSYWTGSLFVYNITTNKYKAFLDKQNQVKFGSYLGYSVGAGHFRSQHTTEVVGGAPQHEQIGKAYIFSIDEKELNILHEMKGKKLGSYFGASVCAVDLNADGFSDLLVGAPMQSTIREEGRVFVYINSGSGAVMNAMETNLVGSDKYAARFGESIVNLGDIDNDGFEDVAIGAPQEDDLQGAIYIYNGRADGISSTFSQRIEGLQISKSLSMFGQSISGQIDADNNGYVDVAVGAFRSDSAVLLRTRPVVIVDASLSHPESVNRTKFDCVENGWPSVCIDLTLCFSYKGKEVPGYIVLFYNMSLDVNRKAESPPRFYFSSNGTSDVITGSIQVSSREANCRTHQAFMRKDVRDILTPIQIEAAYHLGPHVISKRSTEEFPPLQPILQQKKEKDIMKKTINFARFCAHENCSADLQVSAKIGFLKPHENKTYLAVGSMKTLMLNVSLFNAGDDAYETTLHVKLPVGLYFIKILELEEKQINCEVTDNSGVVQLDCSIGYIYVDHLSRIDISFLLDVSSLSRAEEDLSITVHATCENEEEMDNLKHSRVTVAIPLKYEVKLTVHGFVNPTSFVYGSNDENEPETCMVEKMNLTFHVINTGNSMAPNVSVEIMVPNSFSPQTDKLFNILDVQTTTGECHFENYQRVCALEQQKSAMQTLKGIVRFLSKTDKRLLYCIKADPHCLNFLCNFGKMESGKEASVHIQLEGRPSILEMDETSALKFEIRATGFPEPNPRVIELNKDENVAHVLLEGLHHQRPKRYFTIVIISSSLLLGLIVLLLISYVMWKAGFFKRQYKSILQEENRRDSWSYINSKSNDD
Sequence (P05556 21-798): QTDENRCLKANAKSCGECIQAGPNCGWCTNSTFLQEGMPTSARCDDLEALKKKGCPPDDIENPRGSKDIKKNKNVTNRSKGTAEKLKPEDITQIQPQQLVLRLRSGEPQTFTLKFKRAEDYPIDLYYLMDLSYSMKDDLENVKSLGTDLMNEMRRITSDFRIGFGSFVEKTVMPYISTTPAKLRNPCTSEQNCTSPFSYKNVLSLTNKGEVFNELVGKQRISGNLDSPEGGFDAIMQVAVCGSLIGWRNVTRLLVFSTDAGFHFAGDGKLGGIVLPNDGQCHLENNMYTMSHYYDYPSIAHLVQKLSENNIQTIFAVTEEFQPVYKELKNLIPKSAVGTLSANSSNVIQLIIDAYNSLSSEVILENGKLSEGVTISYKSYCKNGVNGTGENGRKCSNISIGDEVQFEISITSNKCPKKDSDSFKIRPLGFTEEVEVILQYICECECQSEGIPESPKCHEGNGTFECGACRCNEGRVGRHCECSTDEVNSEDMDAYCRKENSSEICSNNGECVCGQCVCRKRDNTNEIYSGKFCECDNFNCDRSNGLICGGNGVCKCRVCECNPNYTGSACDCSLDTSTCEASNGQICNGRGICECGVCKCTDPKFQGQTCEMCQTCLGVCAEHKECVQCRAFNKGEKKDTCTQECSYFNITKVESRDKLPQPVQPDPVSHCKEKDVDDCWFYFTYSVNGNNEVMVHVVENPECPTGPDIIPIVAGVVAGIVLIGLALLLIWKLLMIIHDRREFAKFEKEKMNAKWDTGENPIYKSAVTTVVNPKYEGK
PROCEDURE_SUMMARY: Jurkat-CS-1 assay
PARTICULARS: Jurkat cells on CS-1 peptide coated plates; read-out: JK/CS-1 (Jurkat CS-1 Assay IC50 value range)
pIC50: −log10 of the molar value.
MEASUREMENT_TYPE: pIC50

Take a look at these entries with their results.
| COMPOUND | pIC50 |
| --- | --- |
| O=C(Nc1ccc(C[C@H](NC(=O)C2CS[C@@H]3CNC(=O)N23)C(=O)O)cc1)c1c(Cl)cccc1Cl (stereo partly drawn) | 6.12 to 7.30 |
| CC1(C)SC[C@H](C(=O)N[C@@H](Cc2ccc(NC(=O)c3c(Cl)cccc3Cl)cc2)C(=O)O)N1C(=O)CCC(=O)O (relative stereo) | ≥ 7.30 |

Data point: CN1C(=O)CCC1(CCC(=O)O)CCC(=O)N[C@@H](Cc1ccc(NC(=O)c2c(Cl)cccc2Cl)cc1)C(=O)O (stereo partly drawn) ; pIC50 = 6.12 to 7.30

---

Listing: IC50 of selected compounds
STUDY_SYSTEM: α4β1 integrin (Jurkat T-cell adhesion to IL-1 stimulated endothelial cell monolayers) (Homo sapiens, UniProt P05556+P13612)
Construct: a T-cell line, Jurkat, known to express the α4β1 integrin
PROCEDURE_SUMMARY: Jurkat-endothelial cell adhesion assay (Jurkat EC)
PARTICULARS: Jurkat cells on IL-1 stimulated human umbilical vein endothelial cells; read-out: JK/EC (Jurkat EC Assay IC50 value range)
Where a name gives a salt, the structure may show the parent alone.

Take a look at these entries with their results.
| COMPOUND | READOUT_VALUE |
| --- | --- |
| O=C(O)c1cncc(C(=O)N2CCCC(C(=O)N[C@@H](Cc3ccc(NC(=O)c4c(Cl)cccc4Cl)cc3)C(=O)O)C2)c1 (stereo partly shown) | ≥ 1 µM |
| CCOC(=O)N1[C@@H](C(=O)N[C@@H](Cc2ccc(NC(=O)c3c(Cl)cccc3Cl)cc2)C(=O)OC)CSC12CCCC2 (relative stereo) | ≥ 1 µM |
| O=C(Nc1ccc(C[C@H](NC(=O)C2CNC2)C(=O)O)cc1)c1c(Cl)cccc1Cl [Example 147, Trifluoroacetic Acid Salt] | ≥ 1 µM |
| O=C(Nc1ccc(C[C@H](NC(=O)[C@@H]2CCCCN2C(=O)C2CCOC2)C(=O)O)cc1)c1c(Cl)cccc1Cl (stereo partly shown) | ≤ 0.25 µM |
| O=C(O)/C=C/C(=O)N1CSC[C@@H]1C(=O)N[C@@H](Cc1ccc(NC(=O)c2c(Cl)cccc2Cl)cc1)C(=O)O | 0.25 to 1 µM |
| COC(=O)[C@H](Cc1ccc(NC(=O)c2c(Cl)cccc2Cl)cc1)NC(=O)[C@@H]1CCN1C(=O)OC(C)(C)C | ≥ 1 µM |
| C[C@H](c1ccccc1)N1[C@H](C(=O)O)C[C@H]1C(=O)N[C@@H](Cc1ccc(NC(=O)c2c(Cl)cccc2Cl)cc1)C(=O)O | 0.25 to 1 µM |
| O=C(O)c1cccc(C(=O)N2CCCC[C@H]2C(=O)N[C@@H](Cc2ccc(NC(=O)c3c(Cl)cccc3Cl)cc2)C(=O)O)n1 | ≤ 0.25 µM |

Data point: COC(=O)[C@H](Cc1ccc(NC(=O)c2c(Cl)cccc2Cl)cc1)NC(=O)[C@H]1CSCN1C(=O)OC12CC3CC(CC(C3)C1)C2 (relative stereo) ; IC50 = ≥ 1 µM

Data point: COC(=O)CCC1(CCC(=O)N[C@@H](Cc2ccc(NC(=O)c3c(Cl)cccc3Cl)cc2)C(=O)OC)CCC(=O)N1 (stereo partly shown) ; IC50 = ≥ 1 µM

Data point: `O=C(O)c1cccc(C(=O)N2CSC[C@H]2C(=O)N[C@@H](Cc2ccc(NC(=O)c3c(Cl)cccc3Cl)cc2)C(=O)O)n1` ; IC50 = ≥ 1 µM

Data point: `CS(=O)(=O)N1CSC[C@@H]1C(=O)N[C@@H](Cc1ccc(OCc2c(Cl)cccc2Cl)cc1)C(=O)O` ; IC50 = 0.25 to 1 µM

Data point: `CCOC(=O)N1[C@@H](C(=O)O)C[C@@H]1C(=O)N[C@@H](Cc1ccc(NC(=O)c2c(Cl)cccc2Cl)cc1)C(=O)O` ; IC50 = ≥ 1 µM

Data point: O=C(Nc1ccc(C[C@H](NC(=O)[C@@H]2CSCN2C(=O)C2NC(C(=O)O)CS2)C(=O)O)cc1)c1c(Cl)cccc1Cl (stereo partly shown) ; IC50 = 0.25 to 1 µM

---

Listing: pIC50 of selected compounds
STUDY_SYSTEM: α4β1 integrin (Jurkat T-cell adhesion to IL-1 stimulated endothelial cell monolayers) (Homo sapiens, UniProt P05556+P13612)
Construct: a T-cell line, Jurkat, known to express the α4β1 integrin
PROCEDURE_SUMMARY: Jurkat-endothelial cell adhesion assay (Jurkat EC)
PARTICULARS: Jurkat cells on IL-1 stimulated human umbilical vein endothelial cells; read-out: JK/EC (Jurkat EC Assay IC50 value range)
pIC50: −log10 of the molar value.

| COMPOUND | READOUT_VALUE |
| --- | --- |
| COC(=O)[C@H](Cc1ccc(OCc2c(Cl)cccc2Cl)cc1)NC(=O)CCC1(C(=O)O)CCC(=O)N1 (stereo partly drawn) [Example 116] | ≤ 6.00 |
| COC(=O)CCCC(=O)N1CSC[C@@H]1C(=O)N[C@@H](Cc1ccc(NC(=O)c2c(Cl)cccc2Cl)cc1)C(=O)O (relative stereo) [Example 151] | ≥ 6.60 |
| O=C(O)CCC(=O)N1CSC[C@@H]1C(=O)N[C@@H](Cc1ccc(NC(=O)c2c(Cl)cccc2Cl)cc1)C(=O)O (relative stereo) [Example 9] | ≥ 6.60 |
| COC(=O)[C@H](Cc1ccc(NC(=O)c2c(Cl)cccc2Cl)cc1)NC(=O)C1CCCCN1C(=O)CC1(CC(=O)O)CCCC1 (stereo partly drawn) [Example 164] | ≤ 6.00 |
| COC(=O)CCC(=O)N1[C@@H](C(=O)N[C@@H](Cc2ccc(NC(=O)c3c(Cl)cccc3Cl)cc2)C(=O)OC)C(C)(C)SC1(C)C (relative stereo) [Example 86] | ≤ 6.00 |

Let us move to another entry and its pIC50.
Data point: CCOC(=O)N1[C@@H](C(=O)N[C@@H](Cc2ccc(NC(=O)c3c(Cl)cccc3Cl)cc2)C(=O)O)C(C)(C)SC1(C)C (relative stereo) [Example 82] ; pIC50 = 6.00 to 6.60

---

STUDY_SYSTEM: α4β1 integrin (Jurkat T-cell adhesion to IL-1 stimulated endothelial cell monolayers) (Homo sapiens, UniProt P05556+P13612)
Construct: a T-cell line, Jurkat, known to express the α4β1 integrin
PROCEDURE_SUMMARY: Jurkat-endothelial cell adhesion assay (Jurkat EC)
PARTICULARS: Jurkat cells on IL-1 stimulated human umbilical vein endothelial cells; read-out: JK/EC (Jurkat EC Assay IC50 value range)
pIC50: −log10 of the molar value.
Listing: pIC50 of selected molecules

Take a look at these entries with their results.
| MOLECULE | READOUT_VALUE |
| --- | --- |
| CCOC(=O)N1CSC[C@@H]1C(=O)N[C@@H](Cc1ccc(OCc2c(Cl)cccc2Cl)cc1)C(N)=O (relative stereo) [Example 90] | ≤ 6.00 |
| CC(C)(C)OC(=O)N1CSC[C@@H]1C(=O)N[C@@H](Cc1ccc(NC(=O)c2c(Cl)cccc2Cl)cc1)C(=O)O (relative stereo) [Example 10] | ≥ 6.60 |
| CC(=O)N1CSC[C@@H]1C(=O)N[C@@H](Cc1ccc(NC(=O)c2c(Cl)cccc2Cl)cc1)C(=O)O [Example 62] | ≥ 6.60 |
| O=C(O)/C=C/C(=O)N1CCCC[C@H]1C(=O)N[C@@H](Cc1ccc(NC(=O)c2c(Cl)cccc2Cl)cc1)C(=O)O [Example 176] | ≤ 6.00 |
| CC(C)(C)OC(=O)N1CSC[C@@H]1C(=O)N[C@H](Cc1ccc(NC(=O)c2c(Cl)cccc2Cl)cc1)C(=O)O (stereo in doubt) [Example 27] | ≤ 6.00 |

Let us move to another entry and its pIC50.
Data point: CCOC(=O)N1[C@@H](C(=O)N[C@@H](Cc2ccc(NC(=O)c3c(Cl)cccc3Cl)cc2)C(=O)O)CSC12CCCCC2 (relative stereo) [Example 80] ; pIC50 = ≤ 6.00

---

STUDY_SYSTEM: α4β1 integrin (Jurkat cell adhesion to immobilized CS-1 derived peptide CLHPGEILDVPST) (Homo sapiens, UniProt P05556+P13612)
Construct: 100 μl of Jurkat cells (2.5×10^6 cells/ml) in DMEM plus BSA
PROCEDURE_SUMMARY: Jurkat-CS-1 assay
PARTICULARS: Jurkat cells on CS-1 peptide coated plates; read-out: JK/CS-1 (Jurkat CS-1 Assay IC50 value range)
Where a name gives a salt, the structure may show the parent alone.
Listing: IC50 of selected compounds

Take a look at these entries with their results.
| COMPOUND | READOUT_VALUE |
| --- | --- |
| NC(=O)[C@H](Cc1ccc(OCc2c(Cl)cccc2Cl)cc1)NC(=O)[C@H]1CSCN1C(=O)OCCN1CCCCC1 | 50 to 750 nM |
| O=C(O)c1cncc(C(=O)N2CCC(C(=O)N[C@@H](Cc3ccc(NC(=O)c4c(Cl)cccc4Cl)cc3)C(=O)O)CC2)c1 | 50 to 750 nM |
| O=C(Nc1ccc(C[C@H](NC(=O)[C@H]2CSCN2S(=O)(=O)c2ccccc2)C(=O)O)cc1)c1c(Cl)cccc1Cl | ≤ 50 nM |
| CC(C)(C)OC(=O)N1CSC[C@@H]1C(=O)N[C@@H](Cc1ccc(OCc2c(Cl)cccc2Cl)c(Cl)n1)C(=O)O | ≥ 750 nM |
| COC(=O)[C@H](Cc1ccc(NC(=O)c2c(Cl)cccc2Cl)cc1)NC(=O)[C@@H]1CCN1C(=O)OC(C)(C)C | ≥ 750 nM |
| O=C(Nc1ccc(C[C@H](NC(=O)C2CNC2)C(=O)O)cc1)c1c(Cl)cccc1Cl [Example 147, Trifluoroacetic Acid Salt] | ≥ 750 nM |

Let us move to another entry and its IC50.
Data point: `CCOC(=O)N1CSC[C@@H]1C(=O)N[C@@H](Cc1ccc(NC(=O)c2cccnc2)cc1)C(=O)O` ; IC50 = 50 to 750 nM

Sourced from patent US6685617B1
